Target of assay: T1, Aβ (1-42) peptide (human)
T1 construct: also called Aβ1-42 fibers; Aβ4
Protocol description: SPR, kinetic fit, immobilized fibers;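 note: surface plasmon resonance on a Biacore chip bearing in vitro formed Aβ1-40 or Aβ1-42 fibers, KD taken as koff/kon by fitting time-resolved sensor responses, based on total Fab concentration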
In this section we review reported pKd values for a set of binders.
Conceptually, pKd converts a concentration in mol/L into minus its log10.

* MS-Roche #3.4H1×3.4L9 Fab (Fab, V domains shown, cross-cloned Fab) VH: QLVESGGGLVQPGGSLRLSCAASGFTFSSYAMSWVRQAPGKGLEWVSAISETSIRKYYADSVKGRFTISRDNSKNTLYLQMNSLRAEDTAVYYCARLTHYARYYRYFDVWGQGTLVTVSS VL: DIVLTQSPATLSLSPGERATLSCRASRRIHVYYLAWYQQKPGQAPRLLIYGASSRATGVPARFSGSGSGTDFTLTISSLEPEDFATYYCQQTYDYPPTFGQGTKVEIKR | 9.30

IN: Fill in pKd for record MS-Roche #7.11H1×7.11L1 Fab (Fab, V domains shown, cross-cloned Fab; VH entry starts at QLVESGG) VH: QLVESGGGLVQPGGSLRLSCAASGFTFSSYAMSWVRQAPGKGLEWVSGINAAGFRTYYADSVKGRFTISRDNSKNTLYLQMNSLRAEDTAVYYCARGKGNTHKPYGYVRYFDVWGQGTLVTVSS VL: DIVLTQSPATLSLSPGERATLSCRASQRILRIYLAWYQQKPGQAPRLLIYGASSRATGVPARFSGSGSGTDFTLTISSLEPEDFATYYCQQVYSPPHTFGQGTKVEIKR
OUT: 9.33
